Biological target: human MDM2 (GST-hMDM2 1-188), interaction with biotinylated-p53 (1-83) (Homo sapiens, UniProt Q00987)
Construct: Amino acid residues 1-188 of human MDM2 were expressed
Sequence (Q00987 1-188): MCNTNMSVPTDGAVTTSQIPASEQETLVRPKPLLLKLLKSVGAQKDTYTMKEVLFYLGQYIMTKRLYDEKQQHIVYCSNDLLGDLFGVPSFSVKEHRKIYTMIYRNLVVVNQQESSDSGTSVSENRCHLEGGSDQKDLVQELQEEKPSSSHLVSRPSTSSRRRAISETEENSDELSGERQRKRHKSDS
Assay: improved HTRF assay (HTRF2 assay), inhibition of HDM2-p53 interaction
Conditions: 0.2 nM GST-hMDM2, 0.5 nM biotinylated-p53, 100 mM KF
Each record here notes measured pIC50.
When answering, recall that pIC50 equals minus log10 of the concentration in mol/L, and write that number alone.

The cases that follow already have their pIC50 on record.
CC[C@]1(CC(=O)O)O[C@H](c2cccc(Cl)c2)[C@@H](c2ccc(Cl)cc2)N([C@@H](CC(F)(F)F)CS(=O)(=O)C(C)(C)C)C1=O (single isomer, unassigned) [Example 342] ... 6.98
CC[C@@H](CS(=O)(=O)C(C)(C)C)N1C(=O)[C@@H](CNC(=O)N(CC)CC)O[C@H](c2cccc(Cl)c2)[C@H]1c1ccc(Cl)cc1 (single isomer, unassigned) [Example 376] ... 7.32

Alright, here's another molecule for you.
Consider the molecule shown here: CC(C)(C)S(=O)(=O)C[C@H](C1CC1)N1C(=O)[C@@H](CCO)O[C@H](c2cccc(Cl)c2)[C@H]1c1ccc(Cl)cc1 (single isomer, unassigned) What is its recorded pIC50? 7.55

The origin of these recorded values is patent US9376425B2.
